src = PubChem BioAssay (NCI)

assay: NCI Yeast Anticancer Drug Screen. Data for the cln2 rad14 strain (AID 165);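 further: 0% = growth equal to vehicle treated cultures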; conditions: S. cerevisiae cln2 rad14 strain, at 50.0 µM, hits give high values
This is part of a sample that, as a whole, favours compounds with a hit. Of some 79,000 tested, about 15% had one in any assay.

{"compound": "CC1CC(C)CN(S(=O)(=O)c2cc(Cl)c(Oc3ccc([N+](=O)[O-])cc3Cl)c(Cl)c2)C1 (stereo unspecified)", "unit": "%", "growth inhibition": 34.4}
{"compound": "Brc1cccc2ccccc12", "unit": "%", "growth inhibition": -38}
{"compound": "Cc1cccc(C(=O)OCc2ccccc2CN2CCCCC2)c1", "unit": "%", "growth inhibition": -21.6}
{"compound": "Cc1ccc2c(c1)N=C(Nc1ccccc1)N=S2(C)=O (stereo unspecified)", "unit": "%", "growth inhibition": -11.7}
{"compound": "COc1ccc(NC(=O)C(=O)C2CNC(=O)NC2=O)c(OC)c1 (stereo unspecified)", "unit": "%", "growth inhibition": -6.65}
{"compound": "CC(C)CC(=O)C(C)C(C)C (stereo unspecified)", "unit": "%", "growth inhibition": -4.25}
{"compound": "O=C1c2ccccc2C(=O)N1CCOCCOCCOCCN1C(=O)c2ccccc2C1=O", "unit": "%", "growth inhibition": -12.3}
{"compound": "CC(=O)OC(C)C(=O)OCC1OC(OC(=O)C(C)OC(C)=O)C(OC(=O)C(C)OC(C)=O)C(OC(=O)C(C)OC(C)=O)C1OC(=O)C(C)OC(C)=O (stereo unspecified)", "unit": "%", "growth inhibition": -42.4}
{"compound": "NC(=O)NNc1ccccc1", "unit": "%", "growth inhibition": -16.4}
{"compound": "CCC(=O)C(CCN(C)C)c1ccccc1 (stereo unspecified)", "unit": "%", "growth inhibition": -22.6}
{"compound": "CCC1(c2ccccc2)SCC(=O)NC1=O (stereo unspecified)", "unit": "%", "growth inhibition": 10.8}
